Cited source: patent US8481731B2

Quick list: % stimulation at 10 μM per entry.
molecular target: human GPR119 receptor (Homo sapiens, UniProt Q8TDV5, S329A/T327A); construct: N-terminal leader […]; expressed in transfected cells; assay: cAMP assay (LANCE cAMP-384 Kit), cAMP accumulation in HEK293 cells stably expressing mutant human GPR119 receptor; type: cell-based; conditions: single concentration 10 μM; given where no EC50 value could be determined; HEK293 cells expressing mutant human GPR119
Sequence (Q8TDV5 with tags, fused parts or gaps T327A/S329A): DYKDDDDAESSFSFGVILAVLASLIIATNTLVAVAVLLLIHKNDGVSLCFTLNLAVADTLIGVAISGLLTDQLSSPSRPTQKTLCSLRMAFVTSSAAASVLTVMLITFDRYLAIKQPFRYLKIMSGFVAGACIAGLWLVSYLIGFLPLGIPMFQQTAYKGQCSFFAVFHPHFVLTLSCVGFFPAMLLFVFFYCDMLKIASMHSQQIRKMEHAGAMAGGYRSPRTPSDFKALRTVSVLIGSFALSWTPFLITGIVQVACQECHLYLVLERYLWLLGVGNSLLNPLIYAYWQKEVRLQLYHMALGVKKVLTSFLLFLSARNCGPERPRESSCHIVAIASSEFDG
Express your answer in %, writing the number without its unit.

Example entries and their recorded answers appear below.
Give the reported % stimulation at 10 μM for `CC(C)OC(=O)N1CCC(Oc2cc(N3CCc4cc(S(C)(=O)=O)ccc43)ncc2C#N)CC1` (system: human GPR119 receptor (Homo sapiens, UniProt Q8TDV5, S329A/T327A)). 54

Then this molecule: `CC(C)(C)OC(=O)N1CC[C@@H](Oc2cc(N3CCc4cc(S(C)(=O)=O)ccc43)ncn2)C1` 26

Here's the next entry for you.
Query for human GPR119 receptor (Homo sapiens, UniProt Q8TDV5, S329A/T327A): what % stimulation at 10 μM does the record show for `CC(C)(C)OC(=O)N1CC(Oc2cc(N3CCc4cc(S(C)(=O)=O)ccc43)ncn2)C1` ? 22
